The entries that follow carry Ki values tested on Sodium-dependent noradrenaline transporter (Homo sapiens, UniProt P23975), drawn from several published reports.
Sequence (P23975 whole entry): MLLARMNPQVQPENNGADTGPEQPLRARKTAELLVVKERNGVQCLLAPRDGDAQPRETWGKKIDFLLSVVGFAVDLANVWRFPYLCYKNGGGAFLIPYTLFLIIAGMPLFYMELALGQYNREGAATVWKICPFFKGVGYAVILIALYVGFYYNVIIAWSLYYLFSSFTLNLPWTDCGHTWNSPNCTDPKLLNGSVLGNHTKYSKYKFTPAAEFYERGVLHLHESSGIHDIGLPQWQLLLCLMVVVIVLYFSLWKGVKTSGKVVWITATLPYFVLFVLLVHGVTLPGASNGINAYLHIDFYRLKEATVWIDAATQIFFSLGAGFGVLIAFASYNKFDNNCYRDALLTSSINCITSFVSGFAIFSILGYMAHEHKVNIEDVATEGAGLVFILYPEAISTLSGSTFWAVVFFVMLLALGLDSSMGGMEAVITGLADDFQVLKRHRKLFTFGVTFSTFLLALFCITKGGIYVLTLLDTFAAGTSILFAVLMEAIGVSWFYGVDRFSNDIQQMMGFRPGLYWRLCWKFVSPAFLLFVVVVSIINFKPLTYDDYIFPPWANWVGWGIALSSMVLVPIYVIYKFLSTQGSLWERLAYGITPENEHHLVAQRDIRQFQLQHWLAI
Answers are plain numbers, in nM.

1. Cl.c1ccc(OCc2cc(N3CCNCC3)no2)cc1
163
2. Cc1cc(Oc2ccccc2Cl)c(CN(C)C)cn1
131
3. CCC(CC)N(Cc1ccccc1C(F)(F)F)C1CCNCC1
86
4. Fc1ccc(CN(CC2CCC2)C2CCNCC2)c(C(F)(F)F)c1
3.1
5. Cc1ccc(CN(CC(C)C)C2CCNCC2)cc1
69

// each listed compound needs a value for Ki
1. CCc1cc(Cl)ccc1Oc1cc(C)ncc1CN(C)C
2. COc1cccc(C(CN(C)C)C2(O)CCCCC2)c1 (stereo not given)
3. CNCc1cnc(C)cc1Oc1ccccc1OC
4. Cc1ccc(Oc2cc(F)ccc2CN(C)C)c(N)c1
5. CCC(CC)CN(Cc1ccccc1C(F)(F)F)C1CCNCC1
6. Clc1cccc(Oc2ncccc2C2CCNCC2)c1Cl
7. O=C(CCCCN1CCC(c2ccccc2)CC1)c1nc2ccccc2s1

1: 22; 2: 316; 3: 921; 4: 503; 5: 6.1; 6: 25; 7: 49
